Experiment: physchem
Conditions: PBS, pH 7.4
Criterion: solubility thermodynamic at 4 h meeting or surpassing 30 µM. Met: Criterion met. Not met: Criterion not met.

Molecule: CC(C)=CC[C@H]1C[C@@]23C[C@@H](CC=C(C)C)C(C)(C)[C@@](CC=C(C)C)(C(=O)C(C(=O)c4ccc(O)c(O)c4)=C2OC1(C)C)C3=O [CAMBOGIN]
Group Label: Criterion not met

Molecule: CC(=O)O[C@@]12CO[C@@H]1C[C@H](O)[C@@]1(C)C(=O)[C@H](O)C3=C(C)[C@@H](OC(=O)[C@H](O)[C@@H](NC(=O)OC(C)(C)C)c4ccccc4)C[C@@](O)([C@@H](OC(=O)c4ccccc4)[C@H]21)C3(C)C.O.O.O [DOCETAXEL]
Group Label: Criterion not met

Molecule: NNC(=O)c1ccncc1 [ISONIAZID]
Group Label: Criterion met

Molecule: COc1ccc2[nH]c([S+]([O-])Cc3ncc(C)c(OC)c3C)nc2c1 (stereo not drawn) [OMEPRAZOLE]
Group Label: Criterion met

Molecule: O=C(/C=C/C=C/c1ccc2c(c1)OCO2)N1CCCCC1 [PIPERINE]
Group Label: Criterion not met

Molecule: C=C(C)[C@@H](CC=C(C)C)C[C@@]12C[C@@H](CC=C(C)C)C(C)(C)[C@@](CC=C(C)C)(C(=O)C(C(=O)c3ccc(O)c(O)c3)=C1O)C2=O [GARCINOL]
Group Label: Criterion not met

Molecule: CC(C(=O)[O-])c1ccc(-c2ccccc2)c(F)c1.[Na+] (stereo not drawn)
Group Label: Criterion met

Molecule: CCCSc1ccc2nc(NC(=O)OC)[nH]c2c1 [ALBENDAZOLE]
Group Label: Criterion not met

---

Assay: physchem
Conditions: simulated intestinal fluid, pH 6.8
Quantity Measured: log10(solubility thermodynamic at 24 h) (log10 of the value in µM)

Compound: COCCOC(=O)C1=C(C)NC(C)=C(C(=O)OC(C)C)C1c1cccc([N+](=O)[O-])c1 (stereo not given)
log10(solubility thermodynamic at 24 h): 1.00

Compound: CCC(=O)O[C@]1(C(=O)SCF)[C@H](C)C[C@H]2[C@@H]3C[C@H](F)C4=CC(=O)C=C[C@]4(C)[C@@]3(F)[C@@H](O)C[C@@]21C [FLUTICASONE PROPIONATE]
log10(solubility thermodynamic at 24 h): -0.39

Compound: C[C@@H]1[C@H](O)[C@@H](C)/C=C/C=C/C=C/C=C/C=C/C=C/C=C/[C@H](O[C@@H]2O[C@H](C)[C@@H](O)[C@H](N)[C@@H]2O)C[C@@H]2O[C@](O)(C[C@@H](O)C[C@@H](O)[C@H](O)CC[C@@H](O)C[C@@H](O)CC(=O)O[C@H]1C)C[C@H](O)[C@H]2C(=O)O
log10(solubility thermodynamic at 24 h): 0.58

Compound: COc1c2occc2c(OC)c2c(=O)cc(C)oc12
log10(solubility thermodynamic at 24 h): 1.77

Compound: CO[C@H]1/C=C/O[C@@]2(C)Oc3c(C)c(O)c4c(O)c(c(/C=N/N5CCN(C)CC5)c(O)c4c3C2=O)NC(=O)/C(C)=C\C=C\[C@H](C)[C@H](O)[C@@H](C)[C@@H](O)[C@@H](C)[C@H](OC(C)=O)[C@@H]1C
log10(solubility thermodynamic at 24 h): 1.86
